Listing: pIC50 of selected molecules
experimental target: recombinant human 11 β-HSD1 (Homo sapiens, UniProt P28845)
Sequence (P28845 whole entry): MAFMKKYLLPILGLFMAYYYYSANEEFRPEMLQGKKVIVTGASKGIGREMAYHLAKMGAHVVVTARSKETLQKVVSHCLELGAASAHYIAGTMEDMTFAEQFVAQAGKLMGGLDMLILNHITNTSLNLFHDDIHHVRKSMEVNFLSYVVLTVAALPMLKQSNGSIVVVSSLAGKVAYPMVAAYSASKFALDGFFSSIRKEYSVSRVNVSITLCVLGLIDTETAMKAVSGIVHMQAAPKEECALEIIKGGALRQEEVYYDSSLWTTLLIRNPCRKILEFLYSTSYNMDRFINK
protocol notes: 11 β-HSD1 SPA Assay (Scintillation Proximity Assay)
pIC50: −log10 of the molar value.

Solved cases (5 shown):
Q: I am curious: what pIC50 value has been reported for CC(C)(Oc1ccc(Cl)cc1Cl)C(=O)N[C@H]1C[C@H]2CC[C@@H](C1)N2c1cc(C(=O)NC2CC2)ccn1 [Example 143] ?
Ans: > 5.70

Q: What measured pIC50 goes with CC(C)(Oc1ccc(F)cc1)C(=O)N[C@H]1C[C@H]2CC[C@@H](C1)N2c1ccc(S(C)(=O)=O)cn1 [Example 230] ?
Ans: > 5.70

Q: Look up pIC50: CC(C)(Oc1ccc(Cl)cc1Cl)C(=O)N[C@H]1C[C@H]2CC[C@@H](C1)N2c1ccc(C(=O)NC2CC2)nc1 [Example 163]
Ans: > 6.70

Q: Could you tell me which pIC50 is on file for CC(C)(Oc1ccc(F)c(Cl)c1)C(=O)N[C@H]1C[C@H]2CC[C@@H](C1)N2c1ccc(S(C)(=O)=O)cn1 [Example 226] ?
Ans: > 6.70

Q: Which pIC50 value is on record for CC(C)(Oc1ccc(Cl)cc1Cl)C(=O)N[C@H]1C[C@H]2CC[C@@H](C1)N2c1ccc(C(=O)NC2CCS(=O)(=O)CC2)cn1 [Example 379] ?
Ans: > 6.70

Further cases:
Q: Suppose we examine the molecule CC(C)(Oc1ccc(F)c(Cl)c1Cl)C(=O)N[C@H]1C[C@H]2CC[C@@H](C1)N2c1ccc(C(N)=O)cn1 [Example 97] ; what pIC50 value has been reported?
Ans: > 6.70

Q: GET /values?readout=pIC50&item= CC(C)(Oc1ccc(Cl)cc1Cl)C(=O)N[C@H]1C[C@H]2CC[C@@H](C1)N2c1ccc(NC(=O)NCC(F)(F)F)cc1F [Example 137]
Ans: > 6.70

Q: Name the recorded pIC50 for CC(C)(Oc1ccc(F)cc1)C(=O)N[C@H]1C[C@H]2CC[C@@H](C1)N2c1ccc(S(N)(=O)=O)cn1 [Example 264] .
Ans: > 6.70

Q: Entry CC(C)(Oc1ccc(Cl)cc1Cl)C(=O)N[C@H]1C[C@H]2CC[C@@H](C1)N2c1ccc(C(=O)NCC(F)(F)C(F)(F)F)cn1 [Example 126] : reported pIC50 = ?
Ans: > 6.70

Origin of the recorded values: patent US8163771B2
